Data origin: patent US11987575B2

EXPERIMENTAL_TARGET: BaF3 (T315I mutant) (Homo sapiens, UniProt P00519, T315I, cells depend on it)
TEST_NAME: WST (CCK-8) anti-proliferative assay, BaF3 T315I mutant
CONDITION_DESCRIPTION: read-out: BaF3 (T315I mutant), 72 h treatment, CCK-8 readout OD 450 nm
Readings of GI50 for the listed molecules
Please respond with the number in nM and leave the unit unwritten.

Would you please look over these solved cases?
{"MOLECULE": "CC(=O)N[C@@H]1CC[C@H]2c3cc(C(=O)Nc4ccc(OC(F)(F)Cl)cc4)cc(-c4cc(F)cc(C#N)c4)c3N(C(C)C)[C@@H]12", "RECORDED_NUMBER": 14}
{"MOLECULE": "CC(=O)N[C@@H]1CC[C@H]2c3cc(C(=O)Nc4ccc(OC(F)(F)Cl)cc4)cc(-c4ccncn4)c3N(CC(C)(C)C)[C@@H]12", "RECORDED_NUMBER": 316}

Okay, next one:
Please state recorded GI50 (tested on BaF3 (T315I mutant) (Homo sapiens, UniProt P00519, T315I, cells depend on it)) of CC(C)N1c2c(-c3ccn[nH]3)cc(C(=O)Nc3ccc(OC(F)(F)Cl)cc3)cc2C2CCN(CC(F)(F)F)CC21 (stereo not drawn) 850

---

EXPERIMENTAL_TARGET: BaF3(WT) (Homo sapiens, UniProt P00519)
TEST_NAME: WST (CCK-8) anti-proliferative assay, BaF3 WT
CONDITION_DESCRIPTION: read-out: BaF3(WT); BaF3 WT cells, 72 h treatment, CCK-8 readout OD 450 nm
RECORDED_ENDPOINT: GI50 (nM)
Please respond with the number in nM and leave the unit unwritten.

{"MOLECULE": "CC(C)N1c2c(-c3ccn[nH]3)cc(C(=O)Nc3ccc(OC(F)(F)Cl)cc3)cc2C2CCCC21 (stereo not drawn) [Compound 2]", "RECORDED_NUMBER": 15}
{"MOLECULE": "CC(C)N1c2c(-c3ccn[nH]3)cc(C(=O)Nc3ccc(OC(F)(F)Cl)cc3)cc2C2CCC(NC(=O)N3CCOCC3)C21 (stereo not drawn) [Compound 10]", "RECORDED_NUMBER": 31}
{"MOLECULE": "CC(=O)NC1CCC2c3cc(C(=O)Nc4ccc(OC(F)(F)Cl)cc4)cc(-c4cccnc4)c3N(C(C)C)C12 (stereo not drawn) [Compound 26]", "RECORDED_NUMBER": 12}

Which measured GI50 value corresponds to COCC(=O)NC1CCC2c3cc(C(=O)Nc4ccc(OC(F)(F)Cl)cc4)cc(-c4ccn[nH]4)c3N(C(C)C)C12 (stereo not drawn) [Compound 9] ? 17

Proceed to CC(C)N1c2c(-c3ccn[nH]3)cc(C(=O)Nc3ccc(OC(F)(F)Cl)cc3)cc2C2CCC(NS(=O)(=O)N3CCOCC3)C21 (stereo not drawn) [Compound 13] 12

Proceed to CC(C)N1c2c(-c3ccn[nH]3)cc(C(=O)Nc3ccc(OC(F)(F)Cl)cc3)cc2C2CCC(NS(=O)(=O)N3CCCCC3)C21 (stereo not drawn) [Compound 16] 12

---

EXPERIMENTAL_TARGET: BaF3 (T315I mutant) (Homo sapiens, UniProt P00519, T315I, cells depend on it)
TEST_NAME: WST (CCK-8) anti-proliferative assay, BaF3 T315I mutant
CONDITION_DESCRIPTION: read-out: BaF3 (T315I mutant), 72 h treatment, CCK-8 readout OD 450 nm
RECORDED_ENDPOINT: GI50
State the value, then name its unit.

Would you please look over these solved cases?
{"COMPOUND": "CC(=O)NC1CCC2c3cc(C(=O)Nc4ccc(OC(F)(F)Cl)cc4)cc(-c4cc[nH]n4)c3N(CC3(C)CC3)C12 (stereo not drawn)", "RECORDED_ENDPOINT": "GI50", "RESULT": "111 nM"}
{"COMPOUND": "CC(C)N1c2c(-c3ccn[nH]3)cc(C(=O)Nc3ccc(OC(F)(F)Cl)cc3)cc2C2CCC(NS(=O)(=O)N3CCOCC3)C21 (stereo not drawn)", "RECORDED_ENDPOINT": "GI50", "RESULT": "122 nM"}
{"COMPOUND": "CC(C)N1c2c(-c3ccn[nH]3)cc(C(=O)Nc3ccc(OC(F)(F)Cl)cc3)cc2C2CCC(NC(=O)Nc3cnccn3)C21 (stereo not drawn)", "RECORDED_ENDPOINT": "GI50", "RESULT": "109 nM"}
{"COMPOUND": "CC(=O)N[C@H]1CC[C@@H]2c3cc(C(=O)Nc4ccc(OC(F)(F)Cl)cc4)cc(-c4cccnc4)c3N(C(C)C)[C@H]12", "RECORDED_ENDPOINT": "GI50", "RESULT": "956 nM"}
{"COMPOUND": "CC(=O)N[C@@H]1CC[C@H]2c3cc(C(=O)Nc4ccc(OC(F)(F)Cl)cc4)cc(-c4ccn[nH]4)c3N(C(C)C)[C@@H]12", "RECORDED_ENDPOINT": "GI50", "RESULT": "35 nM"}

Okay, next one:
Which measured GI50 value corresponds to CC(=O)NC1CCC2c3cc(C(=O)Nc4ccc(OC(F)(F)Cl)cc4)cc(-c4cccnc4)c3N(C(C)C)C12 (stereo not drawn) ? 65 nM

---

EXPERIMENTAL_TARGET: BaF3(WT) (Homo sapiens)
TEST_NAME: WST (CCK-8) anti-proliferative assay, BaF3 WT
CONDITION_DESCRIPTION: read-out: BaF3(WT); BaF3 WT cells, 72 h treatment, CCK-8 readout OD 450 nm
RECORDED_ENDPOINT: GI50 (nM)
Please respond with the number in nM and leave the unit unwritten.

{"COMPOUND": "CC(C)N1c2c(-c3ccn[nH]3)cc(C(=O)Nc3ccc(OC(F)(F)Cl)cc3)cc2C2CCC(NC(=O)c3cocn3)C21 (stereo not shown) [Compound 30]", "OUTPUT_UNIT": "nM", "RECORDED_NUMBER": 16}
{"COMPOUND": "CC(C)N1c2c(-c3ccn[nH]3)cc(C(=O)Nc3ccc(OC(F)(F)Cl)cc3)cc2C2CCC(NS(=O)(=O)N3CCN(C)CC3)C21 (stereo not shown) [Compound 15]", "OUTPUT_UNIT": "nM", "RECORDED_NUMBER": 35}
{"COMPOUND": "CC(C)N1c2c(-c3ccn[nH]3)cc(C(=O)Nc3ccc(OC(F)(F)Cl)cc3)cc2C2CCC(NS(C)(=O)=O)C21 (stereo not shown) [Compound 6]", "OUTPUT_UNIT": "nM", "RECORDED_NUMBER": 67}
{"COMPOUND": "CC(C)N1c2c(-c3ccn[nH]3)cc(C(=O)Nc3ccc(OC(F)(F)Cl)cc3)cc2C2CCC(N3CCCS3(=O)=O)C21 (stereo not shown) [Compound 37]", "OUTPUT_UNIT": "nM", "RECORDED_NUMBER": 25}
{"COMPOUND": "CC(=O)N[C@@H]1CC[C@H]2c3cc(C(=O)Nc4ccc(OC(F)(F)Cl)cc4)cc(-c4cncc(Cl)c4)c3N(C(C)C)[C@@H]12 [Compound 52-A]", "OUTPUT_UNIT": "nM", "RECORDED_NUMBER": 3}
{"COMPOUND": "CC(=O)NC1CCC2c3cc(C(=O)Nc4ccc(OC(F)(F)Cl)cc4)cc(-c4ccn[nH]4)c3N(CC(C)(C)C)C12 (stereo not shown) [Compound 22]", "OUTPUT_UNIT": "nM", "RECORDED_NUMBER": 3}

Which measured GI50 value corresponds to CC(C)N1c2c(-c3ccn[nH]3)cc(C(=O)Nc3ccc(OC(F)(F)Cl)cc3)cc2C2CCC(Nc3cnccn3)C21 (stereo not shown) [Compound 34] ? 17

Proceed to CC(C)N1c2c(-c3ccn[nH]3)cc(C(=O)Nc3ccc(OC(F)(F)Cl)cc3)cc2C2CCC(NS(=O)(=O)C3CCOCC3)C21 (stereo not shown) [Compound 25] 15

Proceed to CC(C)N1c2c(-c3ccn[nH]3)cc(C(=O)Nc3ccc(OC(F)(F)Cl)cc3)cc2C2CCC(NC(=O)C3CCNCC3)C21 (stereo not shown) [Compound 27] 1240

Proceed to CC(=O)N[C@@H]1CC[C@H]2c3cc(C(=O)Nc4ccc(OC(F)(F)Cl)cc4)cc(-c4cncc(F)c4)c3N(C(C)C)[C@@H]12 [Compound 46-A] 2

---

Readings of log10 GI50 for the listed compounds
EXPERIMENTAL_TARGET: BaF3(WT) (Homo sapiens, UniProt P00519)
TEST_NAME: WST (CCK-8) anti-proliferative assay, BaF3 WT
CONDITION_DESCRIPTION: read-out: BaF3(WT); BaF3 WT cells, 72 h treatment, CCK-8 readout OD 450 nm
Lab note - GI50 converted to log10 from values in µM.

{"COMPOUND": "CC(=O)N[C@@H]1CC[C@H]2c3cc(C(=O)Nc4ccc(OC(F)(F)Cl)cc4)cc(-c4cnccn4)c3N(CC(C)(C)C)[C@@H]12", "RECORDED_NUMBER": -1.74}
{"COMPOUND": "CC(=O)N[C@H]1CC[C@@H]2c3cc(C(=O)Nc4ccc(OC(F)(F)Cl)cc4)cc(-c4ccn[nH]4)c3N(CC(C)(C)C)[C@H]12", "RECORDED_NUMBER": -0.32}
{"COMPOUND": "CC(=O)N[C@@H]1CC[C@H]2c3cc(C(=O)Nc4ccc(OC(F)(F)Cl)cc4)cc(-c4cncc(C#N)c4)c3N(C(C)C)[C@@H]12", "RECORDED_NUMBER": -2.52}
{"COMPOUND": "CCC(CC)N1c2c(-c3cncc(F)c3)cc(C(=O)Nc3ccc(OC(F)(F)Cl)cc3)cc2C2CCC(NC(C)=O)C21 (stereo not drawn)", "RECORDED_NUMBER": -2.05}
{"COMPOUND": "COCCS(=O)(=O)NC1CCC2c3cc(C(=O)Nc4ccc(OC(F)(F)Cl)cc4)cc(-c4ccn[nH]4)c3N(C(C)C)C12 (stereo not drawn)", "RECORDED_NUMBER": -1.89}

Okay, next one:
Please state recorded log10 GI50 (tested on BaF3(WT) (Homo sapiens, UniProt P00519)) of CC(=O)N[C@@H]1CC[C@H]2c3cc(C(=O)Nc4ccc(OC(F)(F)Cl)cc4)cc(-c4cncnc4)c3N(C(C)C)[C@@H]12 -1.38
